Reference for the values: patent US11897898B2

# IC50 per record follows
# target: ASK1/MAP3K5 (Homo sapiens, UniProt Q99683)
# Construct: purchased Reaction Biology Corp. (Malvern, Pa.)
# protocol_notes: ASK1 enzyme assay (ASK1/MAP3K5 assay by Reaction Biology Corp., 33P-ATP filter-binding)
# Type: biochemical
# assay_conditions: 20 μM myelin basic protein and 10 μM ATP; class symbols

Input line: Form field: reported IC50 of C[C@H]1CCCOc2ncc(C3COC3)cc2C(=O)Nc2cccc(n2)-c2nncn21
Output line: ≤ 100 nM

Input line: How about this compound: COc1ccc(-c2cnc3c(c2)C(=O)Nc2cccc(n2)-c2nncn2[C@@H](C)CCCO3)cn1
Output line: ≤ 100 nM

Input line: How about this compound: COC(C)(C)c1cnc2c(c1)C(=O)Nc1cccc(n1)-c1nncn1[C@@H](C)CCCO2
Output line: ≤ 100 nM

Input line: How about this compound: C[C@@H]1CCCOc2ncccc2C(=O)Nc2cccc(n2)-c2nncn21 (single isomer, unassigned)
Output line: 1000 to 10000 nM

---

# protocol_notes: In vivo brain penetration (rat Kpuu study)
# assay_conditions: brain and plasma (unbound), IV infusion in the carotid artery for four hours, 1 mg/kg, steady state, Kpuu=Cu,b/Cu,p
quantity: Kp uu at 4 h

Example entries begin here.
Input line: Form field: reported Kp uu at 4 h of C[C@H]1CCCOc2ncccc2C(=O)Nc2cccc(n2)-c2nncn21 (single isomer, unassigned)
Output line: ≥ 0.1

Input line: How about this molecule: C[C@H]1CCCOc2ncc(C#N)cc2C(=O)Nc2cccc(n2)-c2nncn21
Output line: < 0.1

Input line: How about this molecule: C[C@H]1CCCOc2ncc(-c3ccncc3)cc2C(=O)Nc2cccc(n2)-c2nncn21
Output line: ≥ 0.1

Input line: How about this molecule: C[C@H]1CCCOc2ncc(N3CCN(C)CC3)cc2C(=O)Nc2cccc(n2)-c2nncn21
Output line: < 0.1

Input line: How about this molecule: C[C@H]1CCCOc2ncc(Br)cc2C(=O)Nc2cccc(n2)-c2nncn21 (single isomer, unassigned)
Output line: ≥ 0.1

Input line: How about this molecule: C[C@H]1CCCOc2ncc(C(F)(F)F)cc2C(=O)Nc2cccc(n2)-c2nncn21 (single isomer, unassigned)
Output line: ≥ 0.1

Please find the next molecule below.
Input line: Form field: reported Kp uu at 4 h of Cc1ccc(-c2cnc3c(c2)C(=O)Nc2cccc(n2)-c2nncn2[C@@H](C)CCCO3)cn1
Output line: < 0.1

---

# target: ASK1/MAP3K5 (Homo sapiens, UniProt Q99683)
# Construct: purchased Reaction Biology Corp. (Malvern, Pa.)
# Sequence (Q99683 1-1374): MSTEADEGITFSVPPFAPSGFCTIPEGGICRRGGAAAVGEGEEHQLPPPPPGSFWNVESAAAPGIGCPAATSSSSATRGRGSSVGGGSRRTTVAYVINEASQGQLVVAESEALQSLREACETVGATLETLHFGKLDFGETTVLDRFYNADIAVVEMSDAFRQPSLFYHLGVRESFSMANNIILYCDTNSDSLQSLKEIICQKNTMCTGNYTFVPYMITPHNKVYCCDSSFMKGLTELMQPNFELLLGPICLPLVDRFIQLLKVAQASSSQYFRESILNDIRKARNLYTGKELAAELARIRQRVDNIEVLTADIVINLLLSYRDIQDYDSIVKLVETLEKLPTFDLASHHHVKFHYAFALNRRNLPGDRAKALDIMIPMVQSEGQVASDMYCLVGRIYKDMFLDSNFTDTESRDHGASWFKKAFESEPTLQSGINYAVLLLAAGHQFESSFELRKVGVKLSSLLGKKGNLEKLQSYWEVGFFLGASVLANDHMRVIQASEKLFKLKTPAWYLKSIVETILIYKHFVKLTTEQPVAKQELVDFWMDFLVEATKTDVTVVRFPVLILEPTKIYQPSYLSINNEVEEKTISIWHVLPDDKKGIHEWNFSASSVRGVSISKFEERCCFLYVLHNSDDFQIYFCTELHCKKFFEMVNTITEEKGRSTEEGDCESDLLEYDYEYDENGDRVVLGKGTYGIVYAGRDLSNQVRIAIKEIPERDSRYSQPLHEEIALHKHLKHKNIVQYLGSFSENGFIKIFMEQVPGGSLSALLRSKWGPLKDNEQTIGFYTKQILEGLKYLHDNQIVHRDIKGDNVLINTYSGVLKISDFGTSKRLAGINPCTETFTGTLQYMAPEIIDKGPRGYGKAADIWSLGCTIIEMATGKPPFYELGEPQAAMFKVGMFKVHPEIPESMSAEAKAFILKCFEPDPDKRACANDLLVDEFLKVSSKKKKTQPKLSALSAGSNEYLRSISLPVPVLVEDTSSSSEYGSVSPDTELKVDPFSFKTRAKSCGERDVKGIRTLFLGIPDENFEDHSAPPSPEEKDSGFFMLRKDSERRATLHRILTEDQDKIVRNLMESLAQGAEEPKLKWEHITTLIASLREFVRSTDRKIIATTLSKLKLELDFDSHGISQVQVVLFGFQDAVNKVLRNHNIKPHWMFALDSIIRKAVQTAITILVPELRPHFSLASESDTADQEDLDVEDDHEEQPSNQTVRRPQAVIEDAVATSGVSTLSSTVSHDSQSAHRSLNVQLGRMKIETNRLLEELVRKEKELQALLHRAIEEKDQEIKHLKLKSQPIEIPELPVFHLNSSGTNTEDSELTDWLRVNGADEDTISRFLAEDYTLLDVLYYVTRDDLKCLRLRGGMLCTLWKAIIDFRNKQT
# protocol_notes: ASK1 enzyme assay (ASK1/MAP3K5 assay by Reaction Biology Corp., 33P-ATP filter-binding)
# Assay type: biochemical
# assay_conditions: 20 μM myelin basic protein and 10 μM ATP
# Procedure: The protein kinase inhibitory activity of the compounds described herein were tested using the ASK1/MAP3K5 assay by Reaction Biology Corp. (Malvern, Pa.). […]
quantity: IC50

Input line: Return IC50 measured with ASK1/MAP3K5 (Homo sapiens, UniProt Q99683) given this molecule: C[C@@H]1CCCOc2ncc(C(F)(F)F)cc2C(=O)Nc2cccc(n2)-c2nncn21 (single isomer, unassigned)
Output line: ≥ 10 µM
